Assay: MDR1-MDCK monolayer permeability assay
Assay type: in vitro ADME
Conditions: dog
Please respond with reported Papp A→B for every item in the list.
Just the number plus its unit, please.

### Prompt Respond only with Papp A→B recorded for COC(=O)Nc1nc2cc(C(=O)NCc3ccc4c(c3)B(O)OC4(C)C)ccc2[nH]1
### Response 0.8 ×10⁻⁶ cm/s

### Prompt Output measured Papp A→B for this item: COC(=O)Nc1nc2ccc(C(=O)N(C)Cc3ccc4c(c3)B(O)OC4(C)C)cc2[nH]1
### Response 0.6 ×10⁻⁶ cm/s

### Prompt Give Papp A→B for COC(=O)Nc1nc2ccc(C(=O)NCc3ccc4c(c3)B(O)OC4(C)C)cc2n1C
### Response 1.8 ×10⁻⁶ cm/s

### Prompt Identify Papp A→B associated with the compound COC(=O)Nc1nc2cc(C(=O)NCc3ccc4c(c3)B(O)OC4(C)C)ccc2n1C
### Response 1.2 ×10⁻⁶ cm/s

### Prompt Using known records, supply Papp A→B for COC(=O)Nc1nc2ccc(C(=O)N(CCN(C)C)Cc3ccc4c(c3)B(O)OC4(C)C)cc2[nH]1
### Response 0.14 ×10⁻⁶ cm/s

### Prompt Please supply the value of reported Papp A→B for the item COC(=O)Nc1nc2c(F)c(C(=O)NCc3ccc4c(c3)B(O)OC4(C)C)ccc2[nH]1
### Response 2.35 ×10⁻⁶ cm/s

###

Assay: Plasma drug concentrations in treated infected gerbils
Type: in vivo
Conditions: gerbil, plasma, sc, 100 mg/kg, B. malayi model, necropsy day 42; 100 mg/kg × 14 days, QD, SC (suspension); read-out: drug concentration at necropsy
parameter.measured: concentration at 42 day (necropsy) (µM)
Report the figure in µM without appending any unit label.

### Prompt Look up concentration at 42 day (necropsy) of COC(=O)Nc1nc2cc(C(=O)NCc3ccc4c(c3)B(O)OC4(C)C)ccc2[nH]1 [8a] and report it.
### Response 3.38

###

Test: Plasma drug concentrations in treated infected gerbils
Type: in vivo
Settings: gerbil, plasma, sc, 100 mg/kg, L. sigmodontis model, necropsy day 63; 100 mg/kg × 14 days, QD, SC (suspension)
parameter.measured: concentration at 63 day (necropsy) (nM)
# output: bare number, implied unit nM

### Prompt State its concentration at 63 day (necropsy): COC(=O)Nc1nc2cc(C(=O)NCc3ccc4c(c3)B(O)OC4(C)C)ccc2[nH]1 [8a]
### Response 69

###

Assay: Plasma drug concentrations in treated infected gerbils
Type: in vivo
Conditions: gerbil, plasma, po, 100 mg/kg, L. sigmodontis model, day 42; 100 mg/kg × 28 days, QD, PO (suspension); read-out: drug concentration interim
parameter.measured: concentration at 42 day (nM)
Respond numerically; units are nM and should not be typed.

### Prompt Name the recorded concentration at 42 day of the item COC(=O)Nc1nc2cc(C(=O)NCc3ccc4c(c3)B(O)OC4(C)C)ccc2[nH]1 [8a] in your answer.
### Response 6

###

Experiment: Plasma drug concentrations in treated infected gerbils
Type: in vivo
Settings: gerbil, plasma, po, 100 mg/kg, L. sigmodontis model, necropsy day 63; 100 mg/kg × 28 days, QD, PO (suspension)
parameter.measured: concentration at 63 day (necropsy)

### Prompt Specify reported concentration at 63 day (necropsy) for the compound shown: COC(=O)Nc1nc2cc(C(=O)NCc3ccc4c(c3)B(O)OC4(C)C)ccc2[nH]1
### Response 3 nM
